measurementProtocol: gradient 5% acetonitrile 3 min, to 50% in 2 min, to 85% in 15 min, held 3 min, 100 µL/min
conditionDescription: column: Zorbax Extend-C18 2.1 x 50 mm; eluents: water / acetonitrile, 0.1% formic acid
quantityName: RP-LC retention time (s)
Your answer should be a plain number; it is taken to be in s.

Worked set:
COc1ccc(NC(=O)c2nnc(COCC(=O)N3CCN(c4ccccn4)CC3)s2)cc1 :: 610
CCOC(=O)Cn1c(C2CC(=O)N(c3ccccc3)C2)nc2ccccc21 (stereo not drawn) :: 770
Cc1noc(C)c1Cc1ccc(C(=O)N2CCCCCCNC(=O)[C@@H]3CCCC[C@@H]32)o1 :: 839
CCOc1ccc(CNC(=O)c2nnn(Cc3nc(-c4cccc(C)c4)oc3C)c2C)cc1 :: 1140
COc1ccccc1-c1nnc(-c2ccc(Cl)c(S(=O)(=O)N3CCCCC3)c2)o1 :: 1100

Query: // query RP-LC retention time value for entry CCCN1C(=O)c2ccccc2C(C(=O)NC2CCCCC2)C1c1cc(OC)c(OC)c(OC)c1 (stereo not drawn)
Response: 838

Query: RP-LC retention time lookup needed for COc1ccc(C2C(C(=O)N3CC(C)CC(C)C3)CCC(=O)N2c2ccc(OC)cc2)cc1 (stereo not drawn) , thanks.
Response: 871

Query: If you can, please state the reported RP-LC retention time value of `CCN1C(=O)COc2ccc(-c3noc(-c4cccc(Br)c4)n3)cc21` .
Response: 1280

Query: I would be grateful if you could share the reported RP-LC retention time for `Cc1cc(=O)n(CC(=O)NCc2ccccc2)c(N)n1` .
Response: 570

Query: Item Cc1nc(-c2cnccn2)nc2c1CCC(=O)N2CC1CCCO1 (stereo not drawn) has what recorded RP-LC retention time?
Response: 626

----------
Listed below: RP-LC retention time values for each entry.
measurementProtocol: gradient 5% acetonitrile 3 min, to 50% in 2 min, to 85% in 15 min, held 3 min, 100 µL/min
conditionDescription: column: Zorbax Extend-C18 2.1 x 50 mm; eluents: water / acetonitrile, 0.1% formic acid
Express the result in s but write the number alone.

COc1ccc(-c2cnn3c(C)cc(C)nc23)cc1S(=O)(=O)NC(C)c1ccccc1 (centres undefined) :: 1010

Query: Look at this compound and give its reported RP-LC retention time. CCCc1ccc(S(=O)(=O)N2CCC3(CCC(CN4CCN(C)CC4)O3)CC2)cc1 (centres undefined)
Response: 654

Query: Looking for the measured RP-LC retention time of `CSc1ccc(-c2nc3nc(C)cc(C)n3c2Nc2ccc3c(c2)OCCO3)cc1` , can you help?
Response: 724

Query: If you can, please state the reported RP-LC retention time value of `O=C(COc1ccc(Cl)cc1)NCc1nnc(SCC(=O)Nc2nccs2)o1` .
Response: 703

Query: Looking for the measured RP-LC retention time of `COc1ccc(OCc2ccc(C(=O)Nc3cc4c(cc3C(C)=O)OCO4)o2)cc1` , can you help?
Response: 1060

Query: Which measured RP-LC retention time value corresponds to `COc1ccccc1-c1nnc(-c2ccc(C)c(S(=O)(=O)N3CCCC3)c2)o1` ?
Response: 966

----------
measurementProtocol: gradient 5% acetonitrile 3 min, to 50% in 2 min, to 85% in 15 min, held 3 min, 100 µL/min
conditionDescription: column: Zorbax Extend-C18 2.1 x 50 mm; eluents: water / acetonitrile, 0.1% formic acid
API: label(entry) gives Criterion met if the entry's RP-LC retention time is strictly smaller than 800 s; on equality or larger values it gives Criterion not met.

Some solved entries appear below for comparison.
CCN1CCN(CC2CCN(S(=O)(=O)c3cc(F)cc(F)c3)CC2)CC1 :: Criterion met
Cn1nc(CNC(=O)c2cccs2)c2ccccc21 :: Criterion met

Query: Is it true that RP-LC retention time reported for `Cc1cc(Nc2ccc(NC(=O)c3cnccn3)cc2)nc(N2CCCCC2)n1` is less than 800 s?
Response: Criterion met

Query: Given the entry `COc1ccccc1-c1nc(COC(=O)C2=CN(Cc3ccccc3)S(=O)(=O)N=C2C)no1` , would its reported RP-LC retention time be below 800 s?
Response: Criterion not met

Query: Check if RP-LC retention time falls below 800 s for `Cc1noc(/C=C\c2ccc(S(=O)(=O)N3CCCC3)cc2)c1NC(=O)C1CC1` .
Response: Criterion not met

Query: hey, is RP-LC retention time for CN1C(=O)c2cccn2CC1C(=O)NCCc1c[nH]c2ccccc12 (centres undefined) lower than 800 s or not?
Response: Criterion met

Query: Quick check: RP-LC retention time of `O=C(NCCCO)C(=O)NCCc1ccc(Cl)cc1` under 800 s?
Response: Criterion met

Query: For O=C(N1CCC2(CC1)CC(CCOc1ccncc1)CCO2)C1(c2ccccc2)CC1 (centres undefined) , is the recorded RP-LC retention time below the cut-off of 800 s?
Response: Criterion met

Query: Lab note: RP-LC retention time threshold 800 s. Does this compound come in strictly under it? `Cn1cc(CN2CCn3c(nnc3[C@@H]3C[C@@H](O)CN3Cc3cccnc3)C2)c2ccccc21`
Response: Criterion met

Query: Check if RP-LC retention time falls below 800 s for Cc1oc2ccn(Cc3ccccc3F)c(=O)c2c1C(=O)NCC1CCCO1 (centres undefined) .
Response: Criterion not met

----------
measurementProtocol: gradient 5% acetonitrile 3 min, to 50% in 2 min, to 85% in 15 min, held 3 min, 100 µL/min
conditionDescription: column: Zorbax Extend-C18 2.1 x 50 mm; eluents: water / acetonitrile, 0.1% formic acid
Entries and their RP-LC retention time values follow.

Some compounds with known RP-LC retention time results, for comparison:
CC(C)Oc1ccc(CNC(=O)C2CCN(S(=O)(=O)c3ccc4c(c3)NC(=O)CO4)CC2)cc1 :: 821 s
CCc1ccc(OCC(=O)Nc2nnc(C3CC(=O)N(c4ccccc4)C3)o2)cc1 (stereo not drawn) :: 799 s
Cc1ccc2nc(-c3ccc(Cl)cc3)c(Nc3ccc4c(c3)OCCO4)n2c1 :: 735 s

Here is another compound to look at.
Query: Name the recorded RP-LC retention time for `Cc1ccc(Cn2c(=O)c3sccc3n(Cc3nc(-c4ccccc4)no3)c2=O)cc1` .
Response: 1150 s

----------
A collection of compounds and their measured RP-LC retention time
measurementProtocol: gradient 5% acetonitrile 3 min, to 50% in 2 min, to 85% in 15 min, held 3 min, 100 µL/min
conditionDescription: column: Zorbax Extend-C18 2.1 x 50 mm; eluents: water / acetonitrile, 0.1% formic acid
Use s as the unit, but write only the number.

CCn1cnc(S(=O)(=O)N2CCC(C(=O)N3CCN(c4ccccc4F)CC3)CC2)c1 :: 762

Now consider a different compound.
Query: // lookup RP-LC retention time for `Cc1ccccc1-c1noc(Cn2cnc3c(cnn3-c3cc(Cl)ccc3C)c2=O)n1`
Response: 1100

----------
measurementProtocol: gradient 5% acetonitrile 3 min, to 50% in 2 min, to 85% in 15 min, held 3 min, 100 µL/min
conditionDescription: column: Zorbax Extend-C18 2.1 x 50 mm; eluents: water / acetonitrile, 0.1% formic acid
quantityName: RP-LC retention time (s)
The figure you give is taken to be in s; do not add the unit.

Query: Suppose we examine the molecule `Cn1cc(CC(=O)N2CCC(C(=O)NCC(F)(F)F)CC2)c2ccccc21` ; what RP-LC retention time value has been reported?
Response: 718

Query: Returns the measured RP-LC retention time for the input molecule. Input: `CCCNC(=O)c1nc(N2CCSCC2)c2cnn(C)c2n1`
Response: 719

Query: Look up RP-LC retention time: `O=C(Cn1c(=O)c2cccn2c2ccc(F)cc21)N1CCOCC1`
Response: 686

----------
measurementProtocol: gradient 5% acetonitrile 3 min, to 50% in 2 min, to 85% in 15 min, held 3 min, 100 µL/min
conditionDescription: column: Zorbax Extend-C18 2.1 x 50 mm; eluents: water / acetonitrile, 0.1% formic acid
# thresholds on RP-LC retention time define classes: band 1: < 700 s; band 2: ≥ 700 s and < 1000 s; band 3: ≥ 1000 s

Query: Which bin should I file `CCOc1cc(=O)n2c(c1C(=O)OCc1cccc(F)c1)CCCC2` under?
Response: band 2

Query: Dear colleague, I would appreciate it if you could identify the bin for `Cc1cc(C)cc(-c2nnc(Cc3nc(-c4cccc(Br)c4)no3)o2)c1` and reply at your convenience.
Response: band 3

Query: Quick check: band for `COc1cc(OC)cc(C(=O)N2CCC(c3cc(N)on3)CC2)c1`
Response: band 1

Query: # classify by RP-LC retention time band: `CCN(C(=O)Cc1csc2nc(-c3ccc(OC)c(OC)c3)cn12)c1ccccc1`
Response: band 2

Query: Please let me know in which category the item COCCOC(=O)C1=C(C)NC(C)=C(C(=O)OC/C=C/c2ccccc2)C1c1cccc([N+](=O)[O-])c1 (centres undefined) belongs.
Response: band 3

Query: Each compound maps to one class by RP-LC retention time. Which class for `CCN1CCN(C(=O)Cc2c(C)nc3nc(-c4ccccc4)nn3c2C)CC1` ?
Response: band 1

Query: # bin lookup: classify O=S(=O)(c1ccc(Br)cc1)N1CCSC1c1ccco1 (centres undefined) by its RP-LC retention time
Response: band 2
